Quick reference for pEC50 among some compounds
Molecular target: Glucose-dependent insulinotropic receptor (Homo sapiens, UniProt Q8TDV5)
Sequence (Q8TDV5 whole entry): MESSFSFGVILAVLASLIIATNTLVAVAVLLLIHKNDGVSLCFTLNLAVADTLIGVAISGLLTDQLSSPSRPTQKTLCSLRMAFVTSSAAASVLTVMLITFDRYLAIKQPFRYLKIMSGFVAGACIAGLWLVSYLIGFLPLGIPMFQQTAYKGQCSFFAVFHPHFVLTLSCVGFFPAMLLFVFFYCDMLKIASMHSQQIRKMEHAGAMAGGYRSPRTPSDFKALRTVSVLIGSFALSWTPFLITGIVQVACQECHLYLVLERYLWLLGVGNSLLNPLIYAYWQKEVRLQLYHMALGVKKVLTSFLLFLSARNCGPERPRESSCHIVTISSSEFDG
Experiment: Agonist activity at human GPR119 expressed in HEK293 cells assessed as stimulation of cAMP level measured after 60 mins by HTRF assay
pEC50: −log10 of the molar value.

Incoming: # query: pEC50 of entry CC(C)(C)OC(=O)N1[C@@H]2CC[C@@H]1CC(Oc1ncnc(Oc3ccccc3Cl)c1[N+](=O)[O-])C2 (relative stereo)
Outgoing: 7.35

Incoming: # query: pEC50 of entry CS(=O)(=O)c1ccc(Nc2ncnc(OC3C[C@H]4CC[C@H](C3)N4C(=O)OCC3CC3)c2[N+](=O)[O-])c(F)c1 (relative stereo)
Outgoing: < 5.70

Incoming: # query: pEC50 of entry CCOC(=O)N1[C@@H]2CC[C@@H]1CC(Nc1ncnc(Nc3ccc(S(C)(=O)=O)cc3F)c1[N+](=O)[O-])C2 (relative stereo)
Outgoing: < 5.70

---

Target: Glucose-dependent insulinotropic receptor (Homo sapiens) (UniProt Q8TDV5)
Sequence (whole entry): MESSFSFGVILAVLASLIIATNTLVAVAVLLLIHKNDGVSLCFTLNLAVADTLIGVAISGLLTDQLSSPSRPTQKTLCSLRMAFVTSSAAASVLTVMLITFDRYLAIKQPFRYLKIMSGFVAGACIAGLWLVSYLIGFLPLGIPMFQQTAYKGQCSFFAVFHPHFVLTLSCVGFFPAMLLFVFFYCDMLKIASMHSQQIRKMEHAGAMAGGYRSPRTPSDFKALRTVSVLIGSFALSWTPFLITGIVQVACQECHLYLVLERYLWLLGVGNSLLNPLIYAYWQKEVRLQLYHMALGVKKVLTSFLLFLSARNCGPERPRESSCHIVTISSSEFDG
Experiment: Agonist activity at human GPR119 expressed in HEK293 cells assessed as stimulation of cAMP level measured after 60 mins by HTRF assay relative to OEA
Format: functional, cell-based
MEASURED_ATTRIBUTE: Emax (%)

{"COMPOUND": "CC(C)(C)OC(=O)N1[C@@H]2CC[C@@H]1CC(Nc1ncnc(Nc3ccc(S(C)(=O)=O)cc3F)c1[N+](=O)[O-])C2 (relative stereo)", "RESULT": 99}

P. CC(C)(C)OC(=O)N1[C@@H]2CC[C@@H]1CC(Nc1ncnc(Nc3ccc(C#N)cc3Cl)c1[N+](=O)[O-])C2 (relative stereo)
Q. CS(=O)(=O)c1ccc(Nc2ncnc(NC3C[C@H]4CC[C@H](C3)N4C(=O)OCC3CC3)c2[N+](=O)[O-])c(F)c1 (relative stereo)
R. CC(C)(C)OC(=O)N1[C@@H]2CC[C@@H]1CC(Oc1ncnc(Nc3ccc(S(C)(=O)=O)cc3F)c1[N+](=O)[O-])C2 (relative stereo)
Incoming: Descending sort on Emax required. Put the labels in the requested order and list them out.
Outgoing: R, P, Q

1. CC(C)OC(=O)N1[C@@H]2CC[C@@H]1CC(Oc1ncnc(Nc3ccc(S(C)(=O)=O)cc3F)c1[N+](=O)[O-])C2 (relative stereo)
2. CCOC(=O)N1[C@@H]2CC[C@@H]1CC(Nc1ncnc(Nc3ccc(S(C)(=O)=O)cc3F)c1[N+](=O)[O-])C2 (relative stereo)
Incoming: Between the entries labeled 1 and 2 , whose measured Emax is lower? Reply briefly: the label of your chosen item.
Outgoing: 2
(2: 32.5%, 1: 103%)

I. CS(=O)(=O)c1ccc(Nc2ncnc(OC3C[C@H]4CC[C@H](C3)N4S(C)(=O)=O)c2[N+](=O)[O-])c(F)c1 (relative stereo)
II. CC(C)(C)OC(=O)N1[C@@H]2CC[C@@H]1CC(Nc1ncnc(Nc3ccccc3C#N)c1[N+](=O)[O-])C2 (relative stereo)
Incoming: Between the entries labeled I and II , whose measured Emax is lower? Reply briefly: the label of your chosen item.
Outgoing: II
(II: 46.2%, I: 117%)

---

molecular target: Glucose-dependent insulinotropic receptor (Homo sapiens) (UniProt Q8TDV5); experiment: Agonist activity at human GPR119 expressed in HEK293 cells assessed as stimulation of cAMP level measured after 60 mins by HTRF assay relative to OEA; type: functional, cell-based
MEASURED_ATTRIBUTE: Emax (%)

Example compounds with recorded Emax:
{"COMPOUND": "CS(=O)(=O)c1ccc(Nc2ncnc(OC3C[C@H]4CC[C@H](C3)N4C(=O)OCC3CC3)c2[N+](=O)[O-])c(F)c1 (relative stereo)", "RESULT": 21.3}
{"COMPOUND": "CS(=O)(=O)c1ccc(Nc2ncnc(NC3C[C@H]4CC[C@H](C3)N4S(=O)(=O)c3ccc(F)cc3)c2[N+](=O)[O-])c(F)c1 (stereo partly specified)", "RESULT": 24.8}
{"COMPOUND": "CS(=O)(=O)c1ccc(Nc2ncnc(NC3C[C@H]4CC[C@H](C3)N4S(C)(=O)=O)c2[N+](=O)[O-])c(F)c1 (relative stereo)", "RESULT": 49.5}

I. CS(=O)(=O)c1ccc(Nc2ncnc(OC3C[C@H]4CC[C@H](C3)N4S(=O)(=O)c3ccc(F)cc3)c2[N+](=O)[O-])c(F)c1 (stereo partly specified)
II. CC(C)(C)OC(=O)N1[C@@H]2CC[C@@H]1CC(Nc1ncnc(Oc3ccccc3Cl)c1[N+](=O)[O-])C2 (relative stereo)
III. CC(C)OC(=O)N1[C@@H]2CC[C@@H]1CC(Nc1ncnc(Nc3ccc(S(C)(=O)=O)cc3F)c1[N+](=O)[O-])C2 (relative stereo)
Incoming: Descending sort on Emax required. Put the labels in the requested order and list them out.
Outgoing: I, III, II
(I: 88.8%, III: 54.5%, II: 37.2%)

---

molecular target: Glucose-dependent insulinotropic receptor (Homo sapiens); experiment: Agonist activity at human GPR119 expressed in HEK293 cells assessed as stimulation of cAMP level measured after 60 mins by HTRF assay
MEASURED_ATTRIBUTE: EC50 (nM)

I. CC(C)OC(=O)N1[C@@H]2CC[C@@H]1CC(Nc1ncnc(Nc3ccc(S(C)(=O)=O)cc3F)c1[N+](=O)[O-])C2 (relative stereo)
II. CC(C)(C)OC(=O)N1[C@@H]2CC[C@@H]1CC(Nc1ncnc(Nc3ccc(S(C)(=O)=O)cc3F)c1[N+](=O)[O-])C2 (relative stereo)
Incoming: Between the entries labeled I and II , whose measured EC50 is lower? Reply briefly: the label of your chosen item.
Outgoing: II

---

molecular target: Glucose-dependent insulinotropic receptor (Homo sapiens, UniProt Q8TDV5); test: Agonist activity at human GPR119 expressed in HEK293 cells assessed as stimulation of cAMP level measured after 60 mins by HTRF assay
MEASURED_ATTRIBUTE: EC50 (nM)

Example compounds with recorded EC50:
{"COMPOUND": "CC(C)OC(=O)N1[C@@H]2CC[C@@H]1CC(Oc1ncnc(Nc3ccc(S(C)(=O)=O)cc3F)c1[N+](=O)[O-])C2 (relative stereo)", "TGT": "Glucose-dependent insulinotropic receptor (Homo sapiens, UniProt Q8TDV5)", "EC50, nM": 0.6}
{"COMPOUND": "CC(C)(C)OC(=O)N1[C@@H]2CC[C@@H]1CC(Nc1ncnc(Nc3ccc(C#N)cc3Cl)c1[N+](=O)[O-])C2 (relative stereo)", "TGT": "Glucose-dependent insulinotropic receptor (Homo sapiens, UniProt Q8TDV5)", "EC50, nM": 205}
{"COMPOUND": "CS(=O)(=O)c1ccc(Nc2ncnc(OC3C[C@H]4CC[C@H](C3)N4S(C)(=O)=O)c2[N+](=O)[O-])c(F)c1 (relative stereo)", "TGT": "Glucose-dependent insulinotropic receptor (Homo sapiens, UniProt Q8TDV5)", "EC50, nM": 1.6}
{"COMPOUND": "CC(C)(C)OC(=O)N1[C@@H]2CC[C@@H]1CC(Oc1ncnc(Nc3ccc(S(C)(=O)=O)cc3F)c1[N+](=O)[O-])C2 (relative stereo)", "TGT": "Glucose-dependent insulinotropic receptor (Homo sapiens, UniProt Q8TDV5)", "EC50, nM": 1.5}
{"COMPOUND": "CCOC(=O)N1[C@@H]2CC[C@@H]1CC(Oc1ncnc(Nc3ccc(S(C)(=O)=O)cc3F)c1[N+](=O)[O-])C2 (relative stereo)", "TGT": "Glucose-dependent insulinotropic receptor (Homo sapiens, UniProt Q8TDV5)", "EC50, nM": 1.4}

P. CC(C)(C)OC(=O)N1[C@@H]2CC[C@@H]1CC(Nc1ncnc(Nc3ccc(C#N)cc3F)c1[N+](=O)[O-])C2 (relative stereo)
Q. CS(=O)(=O)c1ccc(Nc2ncnc(OC3C[C@H]4CC[C@H](C3)N4S(=O)(=O)c3ccc(F)cc3)c2[N+](=O)[O-])c(F)c1 (stereo partly specified)
Incoming: Two entries are listed, P and Q . Which one carries the higher EC50? Reply briefly: the label of your chosen item.
Outgoing: Q
(Q: 3.5 nM, P: 1.3 nM)
